- System: HT29 colon
- method: NCI-60 one-dose screen, 48 h
- measurement setup: 10 µM unless noted
This is part of a sample that, as a whole, favours compounds with a hit. Of some 83,000 tested, about 20% had one in any assay. The source made the active and inactive calls. Rule for the calls: active = growth percent below 10; inactive = the rest.
Outcome codes: active, inactive

| compound | category |
| --- | --- |
| Cc1cc(C)nc(SC2=C(Nc3ccc(C)c(Cl)c3)C(=O)N(Cc3ccccc3)C2=O)n1 | inactive |
| CC(C)CSc1nc(N)nc2c1ncn2C1OC(CO)C(O)C1O (stereo not drawn) | inactive |
| O=C(COc1cccc(/C=C2\COc3ccccc3C2=O)c1)Nc1nccs1 | active |

----------
- System: NCI-H522 lung
- method: NCI-60 one-dose screen, 48 h
- measurement setup: 10 µM unless noted
The panel holds about 83,000 compounds, 20% with a hit somewhere; the sample as a whole holds those more often. Activity calls are given as the source filed them. Rule for the calls: active = growth percent below 10; inactive = the rest.
Labels: active, inactive

| compound | target under test | category |
| --- | --- | --- |
| CCCCC/C(C=C(C#N)C#N)=C/c1ccccc1 | NCI-H522 lung | active |
| C#CCOc1ccc2ncnc(N3CCN(C(=O)CCl)CC3)c2c1 | NCI-H522 lung | active |
| COc1ccc(-c2cc(=O)c3c(OC)c4ccoc4cc3o2)cc1 | NCI-H522 lung | inactive |
| COc1ccc(/C=N/C2=C(C#N)C(c3ccc(N(C)C)cc3)c3ccc4ccccc4c3O2)cc1 (stereo not given) | NCI-H522 lung | inactive |
| CN(C)c1ccc(NC(=O)c2ccc(/C=C/C(=O)c3ncc[nH]3)cc2)cc1 | NCI-H522 lung | inactive |
| O=C1CC(=NCC(=O)n2c(-c3ccccc3)nc3ccccc32)NN1 | NCI-H522 lung | inactive |
| CC[C@H]1OC(=O)[C@H](C)[C@@H](O[C@H]2C[C@@](C)(OC)[C@@H](O)[C@H](C)O2)[C@H](C)[C@@H](O[C@@H]2O[C@H](C)C[C@H](N(C)C)[C@H]2O)[C@](C)(O)C[C@H](C)CN(C)[C@H](C)[C@@H](O)[C@]1(C)O | NCI-H522 lung | inactive |
| N#Cc1cnn(-c2nc3c(Cl)cccc3s2)c1N | NCI-H522 lung | inactive |
| CC(=O)c1nc2ccccc2n1CC(=O)c1cccc(Cl)c1 | NCI-H522 lung | active |
| COc1ccc(C(=S)N2CCN(c3cccc(Cl)c3)CC2)cc1 | NCI-H522 lung | inactive |
| Cc1ccc(OC(=O)c2ccc(Cl)cc2)cc1 | NCI-H522 lung | inactive |
| O=C(N/N=C/c1c[nH]c2ccccc12)c1cc(-c2ccccc2)on1 | NCI-H522 lung | inactive |
| Cc1cc(N2CCCCCC2)nc(NC2CCCC(Nc3ccnc4cc(Cl)ccc34)C2)n1 (stereo not given) | NCI-H522 lung | active |
| COc1nc2c(c(=O)n1C)CN(Cc1ccccc1)C=N2 | NCI-H522 lung | inactive |
| CC(C)(C)N1CCC1CN (stereo not given) | NCI-H522 lung | inactive |
| NC(=NCCCOc1ccc(Cl)cc1)Nc1ccc(Cl)cc1 | NCI-H522 lung | inactive |
| CCN=C1C=CC(=C(c2ccc(N)cc2)c2ccc(N(CC)CC)c(C)c2)C=C1 | NCI-H522 lung | active |
| COc1cc(/C=C/C(=O)c2ccc(O)c(CN3CCN(c4cc5c(cc4F)c(=O)c(C(=O)O)cn5C4CC4)CC3)c2)cc(OC)c1OC | NCI-H522 lung | inactive |
| CCNc1ncnc2c1cnn2C1CCCO1 (stereo not given) | NCI-H522 lung | inactive |
| CCCCCC(=O)Oc1ccc(/C(=C(\C)c2ccc(OC)cc2)c2ccc(OCCN3CCCCC3)cc2)cc1 | NCI-H522 lung | inactive |
| O=C1/C(=C/c2cn(-c3ccccc3)nc2-c2ccccc2)SC(=S)N1CCc1ccccc1 | NCI-H522 lung | inactive |
| COc1ccc(S(=O)(=O)N2CCCCCC2)cc1NC(=O)c1[nH]c(C)c2c1CCCCC2=O | NCI-H522 lung | inactive |
| Cn1cc(-c2nonc2-c2cn(C)c3ccc(F)cc23)c2cc(F)ccc21 | NCI-H522 lung | inactive |
| CCCCn1cnc2c(Sc3c([N+](=O)[O-])ncn3C)nc(N)nc21 | NCI-H522 lung | inactive |
| CN1CCN(c2ccc3nc(-c4ccc(OCCCCN5CCN(CCCCN6C(=O)c7cccc8cccc(c78)C6=O)CC5)cc4)[nH]c3c2)CC1 | NCI-H522 lung | inactive |
| O=C1c2cc3c(cc2-c2c1c1ccc(F)cc1c(=O)n2C[C@H](O)[C@@H](O)[C@H](O)CO)OCO3 | NCI-H522 lung | active |
| C=CCSSc1ncnc2c1ncn2C1OC(CO)C(O)C1O (stereo not given) | NCI-H522 lung | inactive |
| Cn1cccc1-c1nc2c3c(ccc2[nH]1)C(=O)c1ccccc1C3=O | NCI-H522 lung | inactive |
| COc1cccc(-c2nc3sccn3c2-c2ccnc(NCCCNS(=O)(=O)c3cccc(F)c3)c2)c1 | NCI-H522 lung | inactive |
| CN1CCN(Cc2ccc(NC(=O)c3cncc(C#Cc4cncn5ccnc45)c3)cc2C(F)(F)F)CC1 | NCI-H522 lung | inactive |
| COC(=O)c1ccc2oc(NC(=O)c3ccc(Nc4ccc([N+](=O)[O-])cc4C)c([N+](=O)[O-])c3)nc2c1 | NCI-H522 lung | inactive |
| CN(C)CCCNc1c2ccccc2nc2ccccc12 | NCI-H522 lung | inactive |
| COc1ccc(C(=O)COc2ccc(/C=C3\Oc4ccc(OC)cc4C3=O)cc2)cc1 | NCI-H522 lung | active |
| CCOc1nc(-c2ccccc2)cc2c(O)c(C(=O)N/N=C/c3ccc(O)cc3O)[nH]c(=O)c12 | NCI-H522 lung | inactive |
| C#CCOc1ccc2ncnc(Nc3cccc(CNC(=O)CCl)c3)c2c1 | NCI-H522 lung | active |
| O=c1cc(CSc2nnc(SCc3cc(=O)oc4c3ccc3ccccc34)o2)c2ccc3ccccc3c2o1 | NCI-H522 lung | inactive |
| COc1cc2c(cc1-c1c(C)noc1C)ncc1nc(C3CCCCC3)n([C@H](C)COC(F)F)c12 | NCI-H522 lung | inactive |
| O=C1c2c(O)cc(O)cc2-c2c(-c3ccc(O)cc3)oc3cc(O)cc1c23 | NCI-H522 lung | inactive |
| CCCCn1c(-c2ccc(C(=O)O/N=C(\N)c3ccc4ccccc4c3)cc2)nc(-c2ccccc2)c1-c1ccccc1 | NCI-H522 lung | inactive |
| COc1ccc(O)c(N=Nc2nccs2)c1 | NCI-H522 lung | inactive |

----------
- Tested on: UACC-62 melanoma
- method: NCI-60 one-dose screen, 48 h (100 = growth as untreated, 0 = no growth, -100 = all killed)
- measurement setup: 10 µM unless noted
Compounds without any hit were thinned out: in the full panel of roughly 83,000, 20% have a hit. Active and inactive are the calls of the source. How the source made its calls: active means growth percent below 10; inactive means the rest.

| molecule | growth |
| --- | --- |
| Cc1ccc(/C=C2\SC(=S)N(CC(=O)NCCCN3CCOCC3)C2=O)cc1 | 99.7% (inactive) |
| COc1ccc(C2Nc3c(c(C(C)(C)C)nn3-c3ccccc3)C(=O)CS2)cc1 (stereo not given) | 80% (inactive) |
| Nc1n[nH]c2cc(F)c([C@@H]3Nc4ccc5[nH]ncc5c4[C@H]4C5CCC(C5)[C@@H]34)cc12 (stereo not given in full) | 31.5% (inactive) |
| COc1ccc(-c2nn(-c3ccc(Cl)cc3)cc2-c2nc3ccccc3[nH]2)cc1 | 75.8% (inactive) |
| COc1ccc(-c2cc(C(=O)N=Nc3c(O)[nH]c4ccc(Br)cc34)no2)cc1 | 101% (inactive) |

----------
- Test system: MOLT-4 leukemia
- method: NCI-60 one-dose screen, 48 h
- measurement setup: 10 µM unless noted
Compounds without any hit were thinned out: in the full panel of roughly 83,000, 20% have a hit. The source made the active and inactive calls. Rule for the calls: active = growth percent below 10; inactive = the rest.
Labels: TRUE for active, FALSE for inactive

| compound | category |
| --- | --- |
| CN1CCN(c2nc(NCCCNc3ccnc4cc(Cl)ccc34)c3ccccc3n2)CC1 | FALSE |
| Cn1c(=O)c2c(nc3n(-c4ccc(Cl)cc4Cl)c(Sc4nc(-c5ccccc5)c(C#N)c(=O)[nH]4)cn23)n(C)c1=O | FALSE |
| CCOc1cc2c(cc1OCC)C(c1cc(OC)c(O)cc1Cl)NCC2 (centres undefined) | FALSE |
| O=C(COc1ccc(/C=C2\COc3ccccc3C2=O)cc1)Nc1nccs1 | FALSE |
| CN(CCCCCl)P(=O)(OCc1ccc([N+](=O)[O-])o1)C(F)(F)c1ccc(CC(=O)NC[C@@H](O)/C=C\[C@@H](O)[C@H](CO)Cc2ccccc2)cc1 (some centres undefined) | FALSE |
| Cc1cc(C)nc(SC2=C(Nc3cccc(Cl)c3)C(=O)N(Cc3ccccc3)C2=O)n1 | TRUE |
| COc1cc(/C=C/C(=O)Nc2cccnc2Nc2ccc(F)cc2)cc(OC)c1OC | FALSE |
| C#CCOc1ccc2ncnc(Nc3cccc(CNC(=O)C=C)c3)c2c1 | FALSE |
| C#CC(F)(F)[C@]1(O)CC[C@H]2[C@@H]3CCC4=CC(=O)CCC4=C3[C@@H](c3ccc(C4CC4)cc3)C[C@@]21C | TRUE |
